- Tested on: L1210 leukemia ip in BDF1 mice, survival T/C
- Procedure Details: NCI In Vivo Anticancer Drug Screen. Data for tumor model L1210 Leukemia (intraperitoneal) in B6D2F1 (BDF1) mice
- Conditions: endpoint: mean survival time; dose: 400.0 mg/kg/injection; schedule: Q01DX001 (ip); vehicle: saline; higher = longer survival
Inconclusive results and toxic doses are left out.
# T/C per record follows

Some solved entries appear below for comparison.
O=C(CCCC(=O)N/N=C/c1ccc(Cl)cc1Cl)N/N=C\c1ccc(Cl)cc1Cl ... 97 % of control
COc1ccc(C(=O)/C=C\c2ccc(OC)cc2O)cc1 ... 103 % of control
CN(C)C1C(=O)C(C(N)=O)=C(O)C2(O)C(=O)C3=C(O)c4c(O)cccc4C(C)(O)C3CC12 (configuration not stated) ... 100 % of control
Cn1c(=O)c2[nH]c(-c3ccc([N+](=O)[O-])cc3)nc2n(C)c1=O ... 93 % of control
COc1ccccc1OC(=O)c1ccccc1O ... 94 % of control

Here's the next entry for you.
// T/C lookup, key: Oc1ccc(Nc2ccccc2)cc1 105 % of control
